test: qHTS assay to identify aromatase inhibitors - cell viability counter screen (AID 743084); details: MCF-7 aro ERE viability, CellTiter-Fluor, 24 h; series mostly up to 70.3 µM;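 further: cells stimulated with testosterone during compound exposure; nearly all actives have a fitted effect of over 55% in size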
Records with an inconclusive call do not appear. The source made the active and inactive calls. The call rests on the fitted dose curve; in most records, active means well fitted cell-killing curve with a large enough effect in the repeat runs; inconclusive means weak or mixed curves, or effect the other way; inactive means no such curve, though single readings can be large or run the other way.
Labels: active, inactive

[
  {
    "compound": "Cc1ccc(C#N)cc1",
    "class.assignment": "inactive"
  },
  {
    "compound": "N=C(N)c1ccc2cc(OC(=O)c3ccc(N=C(N)N)cc3)ccc2c1",
    "class.assignment": "inactive"
  },
  {
    "compound": "CN1CCN(c2cc3c(cc2F)c(=O)c(C(=O)O)cn3-c2ccc(F)cc2)CC1",
    "class.assignment": "inactive"
  },
  {
    "compound": "CCOC(=O)CCC(C)=O",
    "class.assignment": "inactive"
  },
  {
    "compound": "C=CCCCCCCCCC=O",
    "class.assignment": "inactive"
  },
  {
    "compound": "CC1(C)C(O)C(C)(C)C1O (stereo not given)",
    "class.assignment": "inactive"
  },
  {
    "compound": "FC1(F)C(F)(F)C(F)(F)C2(F)C(F)(F)C(F)(F)C(F)(F)C(F)(F)C2(F)C1(F)F (stereo not given)",
    "class.assignment": "inactive"
  },
  {
    "compound": "O=C(O)CN(CCOCCOCCN(CC(=O)O)CC(=O)O)CC(=O)O",
    "class.assignment": "inactive"
  },
  {
    "compound": "CC(=O)OCC(=O)[C@@]1(O)CC[C@H]2[C@@H]3CCC4=CC(=O)CC[C@]4(C)[C@H]3C(=O)C[C@@]21C",
    "class.assignment": "inactive"
  },
  {
    "compound": "COCCc1ccc(OCC(O)CNC(C)C)cc1 (stereo not given)",
    "class.assignment": "inactive"
  },
  {
    "compound": "NS(=O)(=O)c1cc2c(cc1Cl)NC(C1CC3C=CC1C3)NS2(=O)=O (stereo not given)",
    "class.assignment": "inactive"
  },
  {
    "compound": "COc1ccc2c(c1)c(CC(=O)OCC(=O)O)c(C)n2C(=O)c1ccc(Cl)cc1",
    "class.assignment": "inactive"
  },
  {
    "compound": "CCCN(CCC)CCc1cccc2c1CC(=O)N2",
    "class.assignment": "inactive"
  },
  {
    "compound": "COc1ccccc1OCC(O)CN1CCN(CC(=O)Nc2c(C)cccc2C)CC1 (stereo not given)",
    "class.assignment": "inactive"
  },
  {
    "compound": "COC(C)(C)CCCC(C)CC=O (stereo not given)",
    "class.assignment": "inactive"
  },
  {
    "compound": "CN1C(=O)N(C)C(O)C1O (stereo not given)",
    "class.assignment": "inactive"
  },
  {
    "compound": "CC1=CC(C)C(C=O)CC1 (stereo not given)",
    "class.assignment": "inactive"
  },
  {
    "compound": "OCCOc1ccc(OCCO)cc1",
    "class.assignment": "inactive"
  },
  {
    "compound": "CO[Si](CCCOCC1CO1)(OC)OC (stereo not given)",
    "class.assignment": "inactive"
  },
  {
    "compound": "CC(=O)OCC(=O)[C@@]1(O)CCC2C3CCC4=CC(=O)CC[C@]4(C)C3[C@@H](O)C[C@@]21C (stereo not given in full)",
    "class.assignment": "inactive"
  },
  {
    "compound": "C[C@H](NC(CCc1ccccc1)C(=O)O)C(=O)N1CCC[C@H]1C(=O)O (stereo not given in full)",
    "class.assignment": "inactive"
  },
  {
    "compound": "Nc1c2c(nc3ccccc13)CCCC2O (stereo not given)",
    "class.assignment": "inactive"
  },
  {
    "compound": "NCCCNCCSP(=O)(O)O",
    "class.assignment": "inactive"
  },
  {
    "compound": "CC(=O)Nc1c(I)cc(I)c(C(=O)O)c1I",
    "class.assignment": "inactive"
  },
  {
    "compound": "CN(C)CCCN1c2ccccc2CCc2ccc(Cl)cc21",
    "class.assignment": "active"
  },
  {
    "compound": "C[C@@H]1CCN(C(=O)[C@H](CCCN=C(N)N)NS(=O)(=O)c2cccc3c2NC[C@H](C)C3)[C@@H](C(=O)O)C1",
    "class.assignment": "inactive"
  },
  {
    "compound": "NC(=O)Nc1ccccc1",
    "class.assignment": "inactive"
  },
  {
    "compound": "CCc1ccc(O)c(OC)c1",
    "class.assignment": "inactive"
  },
  {
    "compound": "CCCCCCCCCCCC",
    "class.assignment": "inactive"
  },
  {
    "compound": "CCN(Cc1ccncc1)C(=O)C(CO)c1ccccc1 (stereo not given)",
    "class.assignment": "inactive"
  },
  {
    "compound": "C1CN(CCOCCN2CCOCC2)CCO1",
    "class.assignment": "inactive"
  },
  {
    "compound": "O=C(CCCN1CCC(O)(c2cccc(C(F)(F)F)c2)CC1)c1ccc(F)cc1",
    "class.assignment": "inactive"
  },
  {
    "compound": "O=C(O)c1ccccc1OP(=O)(O)O",
    "class.assignment": "inactive"
  },
  {
    "compound": "CCC(C)C1CCCCC1=O (stereo not given)",
    "class.assignment": "inactive"
  },
  {
    "compound": "c1cnc(N2CCN(Cc3ccc4c(c3)OCO4)CC2)nc1",
    "class.assignment": "inactive"
  },
  {
    "compound": "Nc1c[n+](N2CCOCC2)no1",
    "class.assignment": "inactive"
  },
  {
    "compound": "CCC(=O)OC(C)c1ccccc1 (stereo not given)",
    "class.assignment": "inactive"
  },
  {
    "compound": "CO/N=C(/C(=O)N[C@@H]1C(=O)N2C(C(=O)OCOC(=O)C(C)(C)C)=C(C)CS[C@H]12)c1csc(N)n1",
    "class.assignment": "inactive"
  },
  {
    "compound": "CN(C)CCCSc1ccccc1NC(=O)/C=C/c1ccccc1",
    "class.assignment": "inactive"
  },
  {
    "compound": "O=C1NC(=O)[C@@]2(CCOc3ccc(F)cc32)N1",
    "class.assignment": "inactive"
  },
  {
    "compound": "CCn1nc(C(=O)O)c(=O)c2cc3c(cc21)OCO3",
    "class.assignment": "inactive"
  },
  {
    "compound": "CC/C=C\\CC/C=C/CO",
    "class.assignment": "inactive"
  },
  {
    "compound": "O=C(O)CCCc1ccccc1",
    "class.assignment": "inactive"
  },
  {
    "compound": "CCCCC/C=C\\CCC=O",
    "class.assignment": "inactive"
  },
  {
    "compound": "Cc1ccc(=O)n(-c2ccccc2)c1",
    "class.assignment": "inactive"
  },
  {
    "compound": "NC(=O)c1ccc([N+](=O)[O-])cc1",
    "class.assignment": "inactive"
  },
  {
    "compound": "FC(F)OC(Cl)C(F)(F)F (stereo not given)",
    "class.assignment": "inactive"
  },
  {
    "compound": "COC(=O)c1ccc(C)cc1C1=NC(C)(C(C)C)C(=O)N1 (stereo not given)",
    "class.assignment": "inactive"
  },
  {
    "compound": "CCN1CCC[C@H]1CNC(=O)c1cc(S(N)(=O)=O)ccc1OC",
    "class.assignment": "inactive"
  },
  {
    "compound": "N=C(N)c1ccc(OCCCOc2ccc(C(=N)N)cc2)cc1",
    "class.assignment": "inactive"
  }
]

----------
target: Cytochrome P450 2D6 (Homo sapiens) (UniProt P10635); assay: Cytochrome P450 Family 2 Subfamily D Member 6 (CYP2D6) small molecule antagonists: luciferase reporter qHTS assay (AID 1671196); conditions: P450-Glo CYP2D6 enzyme assay, luciferin luminescence, 1 h; series mostly up to 115 µM; further: nearly all actives have a fitted effect of over 50% in size
Sequence (P10635 whole entry, looked up): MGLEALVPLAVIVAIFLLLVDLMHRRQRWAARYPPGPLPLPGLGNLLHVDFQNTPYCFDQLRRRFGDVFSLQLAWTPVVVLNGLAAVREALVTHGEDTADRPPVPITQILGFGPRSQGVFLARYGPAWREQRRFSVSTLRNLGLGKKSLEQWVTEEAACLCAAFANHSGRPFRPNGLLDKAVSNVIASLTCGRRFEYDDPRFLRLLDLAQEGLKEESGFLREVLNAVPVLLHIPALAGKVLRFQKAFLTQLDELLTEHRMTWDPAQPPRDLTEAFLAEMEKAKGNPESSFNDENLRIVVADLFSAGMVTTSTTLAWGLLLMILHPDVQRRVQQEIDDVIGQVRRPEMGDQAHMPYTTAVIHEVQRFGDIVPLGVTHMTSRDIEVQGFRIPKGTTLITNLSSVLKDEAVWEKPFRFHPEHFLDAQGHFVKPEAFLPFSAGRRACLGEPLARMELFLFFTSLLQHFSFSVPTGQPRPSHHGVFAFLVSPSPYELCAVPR
Inconclusive results are not listed. Active and inactive are the calls of the source. Calls come from the whole dose curve; as a rule, active = well fitted inhibition curve with a large enough effect in the repeat runs; inconclusive = weak or mixed curves; inactive = no such curve, though single readings can be large or run the other way.
Labels: YES for active, NO for inactive

[
  {
    "compound": "COc1ccc2c(c1)CCCC2=O",
    "class.assignment": "NO"
  },
  {
    "compound": "FC(F)OC(Cl)C(F)(F)F (stereo unspecified)",
    "class.assignment": "NO"
  },
  {
    "compound": "CN(C)CCCNCCCN(C)C",
    "class.assignment": "YES"
  },
  {
    "compound": "CC/C=C\\CC/C=C/C(OCC)OCC",
    "class.assignment": "NO"
  },
  {
    "compound": "CCS(=O)(=O)c1ccc(OC)c(C(=O)OC)c1",
    "class.assignment": "NO"
  },
  {
    "compound": "CCCc1cc(C(N)=S)ccn1",
    "class.assignment": "NO"
  },
  {
    "compound": "CCOc1ccc(C(=O)OCCN(CC)CC)cc1",
    "class.assignment": "YES"
  },
  {
    "compound": "CN1CCCC1",
    "class.assignment": "NO"
  },
  {
    "compound": "Cc1ccc(C#N)cc1",
    "class.assignment": "NO"
  },
  {
    "compound": "COC(=O)[C@@H](N)Cc1ccc(O)c(O)c1",
    "class.assignment": "NO"
  },
  {
    "compound": "COc1c(N2C[C@@H]3CCCN[C@@H]3C2)c(F)cc2c(=O)c(C(=O)O)cn(C3CC3)c12",
    "class.assignment": "NO"
  },
  {
    "compound": "Cc1cccc(C)c1NC(=O)C(C)N (stereo unspecified)",
    "class.assignment": "NO"
  },
  {
    "compound": "CCCCOCCOCCOCCCC",
    "class.assignment": "NO"
  },
  {
    "compound": "CCCN(CCC)CCc1cccc2c1CC(=O)N2",
    "class.assignment": "YES"
  },
  {
    "compound": "CCOC(=O)[C@H](CCc1ccccc1)N[C@@H](C)C(=O)N1[C@H](C(=O)O)C[C@@H]2CCC[C@@H]21",
    "class.assignment": "NO"
  },
  {
    "compound": "CCCCCCOC(=O)CCCCC(=O)OCCCCCC",
    "class.assignment": "NO"
  },
  {
    "compound": "O=C(O)CCCc1ccccc1",
    "class.assignment": "NO"
  },
  {
    "compound": "CC(C)NCC(O)c1ccc(NS(C)(=O)=O)cc1 (stereo unspecified)",
    "class.assignment": "YES"
  },
  {
    "compound": "CC(C)(C)c1nnc(NS(=O)(=O)c2ccccc2)s1",
    "class.assignment": "NO"
  },
  {
    "compound": "O=C1OC(=O)C2CCCCC12 (stereo unspecified)",
    "class.assignment": "NO"
  },
  {
    "compound": "CC(C)NCCCC1(C(N)=O)c2ccccc2-c2ccccc21",
    "class.assignment": "YES"
  }
]
